Each recorded value in this set is attributed to patent US10525063B2.

- measurement notes: Serum anastrozole by liquid chromatography-tandem mass spectrometry
- Type: in vivo, human
- test parameters: human, serum, subcutaneous, Serum anastrozole, Example 1; Pellet 2 (testosterone 71 mg, anastrozole 2.75 mg); 3 month
measure name: concentration at 3 month (ng/mL)
Express your answer in ng/mL, writing the number without its unit.

For CC(C)(C#N)c1cc(Cn2cncn2)cc(C(C)(C)C#N)c1 [anastrozole] the molecule record lists concentration at 3 month as 25

====

- measurement notes: Serum anastrozole by liquid chromatography-tandem mass spectrometry
- Format: in vivo, human
- test parameters: human, serum, subcutaneous, Serum anastrozole, Example 1; Pellet 3 (testosterone 71 mg, anastrozole 2.75 mg); 1 month
measure name: concentration at 1 month (ng/mL)
Express your answer in ng/mL, writing the number without its unit.

For CC(C)(C#N)c1cc(Cn2cncn2)cc(C(C)(C)C#N)c1 the compound record lists concentration at 1 month as 38
